B1: Hairpin Ribozyme (parent)
chain: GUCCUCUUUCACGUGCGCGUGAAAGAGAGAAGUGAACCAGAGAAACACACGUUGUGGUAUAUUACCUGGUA

variants of: B1; test: self-cleavage, relative activity (ratio to wild type); higher = more cleavage; co-transcriptional
Entries are grouped by self-cleavage into these classes: range 1 (below 0.1), range 2 (0.1 to below 0.2), range 3 (0.2 or more)

>  <variant.description>
G40A G42U

>  <group>
range 2

$$$$
>  <variant.description>
G32U C38A

>  <group>
range 1

$$$$
>  <variant.description>
U2A A35G

>  <group>
range 3

$$$$
>  <variant.description>
U5A C48G

>  <group>
range 1

$$$$
>  <variant.description>
A35G A64C

>  <group>
range 2

$$$$
>  <variant.description>
A26U G27U

>  <group>
range 1

$$$$
>  <variant.description>
G21U G42A

>  <group>
range 2

$$$$
>  <variant.description>
C10A U70G

>  <group>
range 3

$$$$
>  <variant.description>
U14C A24G

>  <group>
range 3

$$$$
>  <variant.description>
C3G C50A

>  <group>
range 1

$$$$
>  <variant.description>
U53A U67C

>  <group>
range 3

$$$$
>  <variant.description>
G13C A30U

>  <group>
range 2

$$$$
>  <variant.description>
U20A C37A

>  <group>
range 3

$$$$
>  <variant.description>
C4U A44G

>  <group>
range 3

$$$$
>  <variant.description>
G29A G69U

>  <group>
range 2

$$$$
>  <variant.description>
C3G A61G

>  <group>
range 1

$$$$
>  <variant.description>
U33G U60G

>  <group>
range 1

$$$$
>  <variant.description>
G1A A24U

>  <group>
range 2

$$$$
>  <variant.description>
U14C U70G

>  <group>
range 3

$$$$
>  <variant.description>
A30U A61U

>  <group>
range 1

$$$$
>  <variant.description>
A23C A45C

>  <group>
range 1

$$$$
>  <variant.description>
C18G A44U

>  <group>
range 2

$$$$
>  <variant.description>
U9A G19U

>  <group>
range 3

$$$$
>  <variant.description>
U8A U53G

>  <group>
range 3

$$$$
>  <variant.description>
A30U A64U

>  <group>
range 2

$$$$
>  <variant.description>
A45G U53A

>  <group>
range 3

$$$$
>  <variant.description>
U53G A61U

>  <group>
range 2

$$$$
>  <variant.description>
U7A A45U

>  <group>
range 3

$$$$
>  <variant.description>
U33C A61U

>  <group>
range 2

$$$$
>  <variant.description>
C18A G40C

>  <group>
range 1

$$$$
>  <variant.description>
G17U C66U

>  <group>
range 3

$$$$
>  <variant.description>
A59C

>  <group>
range 2

$$$$
